Values were extracted from the RNAGym collection of RNA variant scans (doi:10.7554/elife.90254).

B1: LINE1-full (parent)
chain: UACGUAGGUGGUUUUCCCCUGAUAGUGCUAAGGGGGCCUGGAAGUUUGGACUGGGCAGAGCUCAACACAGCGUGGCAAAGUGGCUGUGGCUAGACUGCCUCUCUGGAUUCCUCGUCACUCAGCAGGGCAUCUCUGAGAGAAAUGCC

- Variants of: B1
- protocolSummary: self-cleavage, relative activity (ratio to wild type); higher = more cleavage; in vitro, sequencing; the parent is a self-cleaving ribozyme
Each item that follows carries a reported self-cleavage.
A bare number is all that is needed in reply.

Check out these entries, answers already filled in.
INSERT INTO measurements (variantnotation, valueobserved) VALUES
  ('A69U A124C', 0.02),
  ('U1A A69G', 1.2),
  ('U13C U46G', 1.31),
  ('G106U U134C', 0.75),
  ('G97A U143C', 0.16),
  ('U26C U143A', 1.44);

## Task Field request: self-cleavage | item: U45A U81C
## Result 1.92

## Task Query C3U C131U next
## Result 1.02

## Task Query U29C U134A next
## Result 0.89
